Where do the numbers come from? From patent US20260042850A1.

- Tested Target: T1, human C-MET on stably transfected CHO-K1 cells (human, UniProt P08581 25-1390)
- T1 construct: also called hucMET; human C-MET+ CHO-K1 cells
- T1 sequence (P08581 25-1390 limits assumed): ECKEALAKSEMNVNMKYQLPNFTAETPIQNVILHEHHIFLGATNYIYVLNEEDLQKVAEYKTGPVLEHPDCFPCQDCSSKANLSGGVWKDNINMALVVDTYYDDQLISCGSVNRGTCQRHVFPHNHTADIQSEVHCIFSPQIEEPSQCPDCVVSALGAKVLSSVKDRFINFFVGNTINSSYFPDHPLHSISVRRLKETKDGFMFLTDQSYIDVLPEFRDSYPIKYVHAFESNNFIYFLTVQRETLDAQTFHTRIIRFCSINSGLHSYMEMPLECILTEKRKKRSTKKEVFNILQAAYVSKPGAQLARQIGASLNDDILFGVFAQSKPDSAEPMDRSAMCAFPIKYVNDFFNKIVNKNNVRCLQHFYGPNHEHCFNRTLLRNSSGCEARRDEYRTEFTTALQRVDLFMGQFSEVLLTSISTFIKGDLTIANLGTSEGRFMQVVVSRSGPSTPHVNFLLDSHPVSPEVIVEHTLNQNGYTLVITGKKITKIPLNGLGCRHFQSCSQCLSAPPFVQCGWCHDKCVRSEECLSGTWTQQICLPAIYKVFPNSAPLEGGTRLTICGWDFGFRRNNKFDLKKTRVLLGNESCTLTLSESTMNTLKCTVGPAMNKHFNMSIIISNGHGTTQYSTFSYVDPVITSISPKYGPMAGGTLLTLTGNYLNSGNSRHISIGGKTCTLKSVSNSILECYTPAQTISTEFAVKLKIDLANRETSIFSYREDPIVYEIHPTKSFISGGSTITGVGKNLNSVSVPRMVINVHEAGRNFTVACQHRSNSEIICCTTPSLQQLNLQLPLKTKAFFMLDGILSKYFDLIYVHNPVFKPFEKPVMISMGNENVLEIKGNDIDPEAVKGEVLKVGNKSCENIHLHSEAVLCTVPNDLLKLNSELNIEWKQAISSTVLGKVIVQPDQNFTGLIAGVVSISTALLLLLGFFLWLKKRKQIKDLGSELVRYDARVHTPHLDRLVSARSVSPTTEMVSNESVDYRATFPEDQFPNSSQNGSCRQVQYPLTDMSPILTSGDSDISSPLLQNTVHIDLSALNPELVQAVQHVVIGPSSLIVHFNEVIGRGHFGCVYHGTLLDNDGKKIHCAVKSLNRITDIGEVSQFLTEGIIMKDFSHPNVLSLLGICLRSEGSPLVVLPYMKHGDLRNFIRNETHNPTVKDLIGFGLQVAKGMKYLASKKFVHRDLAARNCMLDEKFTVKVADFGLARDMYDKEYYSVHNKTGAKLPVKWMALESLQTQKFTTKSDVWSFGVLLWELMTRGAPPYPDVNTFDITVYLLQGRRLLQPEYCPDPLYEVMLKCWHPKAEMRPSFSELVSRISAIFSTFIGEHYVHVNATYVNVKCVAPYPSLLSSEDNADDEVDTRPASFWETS
- Protocol Text: flow cytometry, C-MET CHO-K1 cells
pEC50: −log10 of the molar value.

{"columns": ["Binder", "pEC50"],
 "data": [
  ["h224G11 (humanized 224G11) (antibody, human IgG4, V domains shown, also called Humanized h224G11; 224G11 IgG4(S228P)) VH: QVQLVQSGAEVKKPGASVKVSCKASGYIFTAYTMHWVRQAPGQGLEWMGWIKPNNGLANYAQKFQGRVTMTRDTSISTAYMELSRLRSDDTAVYYCARSEITTEFDYWGQGTLVTVSS VL: DIVMTQSPDSLAVSLGERATINCKSSESVDSYANSFLHWYQQKPGQPPKLLIYRASTRESGVPDRFSGSGSGTDFTLTISSLQAEDVAVYYCQQSKEDPLTFGGGTKVEIK", 8.17],
  ["MH1 (antibody, IgG4, V domains shown) VH: QVQLVQSGAEVKKPGASVKVSCKASGYTFTSYTMHWVRQAPGQGLEWMGWINPNGGSTSYAQKFQGRVTMTRDTSTSTVYMELSSLRSEDTAVYYCARQEITTEFDYWGQGTLVTVSS VL: EIVLTQSPGTLSLSPGERATLSCRASQSVSSYANSYLHWYQQKPGQAPRLLIYRGSTRESGIPDRFSGSGSGTDFTLTISRLEPEDFAVYYCQQSKSEPLTFGGGTKVEIK", 8.69]
]}
